Origin of measurements: patent US20020010186A1

compounds and their reported melting point
Where a name gives a salt, the structure may show the parent alone.
QUANTITY_NAME: melting point

COMPOUND | ENDPOINT_RESULT
COC(=O)N1C(C)=NC(C)=C(C(=O)NCCCN2CCC(C(=O)OC)(c3ccccc3)CC2)C1c1ccc(F)c(F)c1 (stereo not drawn) | 55 to 57 °C
COCC1=NC(C)=C(C(=O)OC)C(c2ccc(F)c(F)c2)N1CCCCCN1CCC(c2ccc(C)cc2)(c2ccccc2C)CC1 (stereo not drawn) (as salt: HCl) | 137 to 140 °C
COCN1C(C)=NC(C)=C(C(=O)NCCCN2CCC(C(=O)OC)(c3ccccc3)CC2)C1c1ccc(F)c(F)c1 (stereo not drawn) | 53 to 57 °C
COC(=O)C1=C(C)N=C(C)N(CCCC(O)CN2CCC(c3ccccn3)CC2)C1c1ccc(F)c(F)c1 (single isomer, unassigned; (+)) (as salt: HCl) | 163 to 165 °C
COC(=O)C1=C(C)NC(=O)N(C(=O)NCCCN2CCC(c3ccccn3)CC2)C1c1ccc(F)c(F)c1 (stereo not drawn) (as salt: hydrochloride) [Example 15, Dihydrochloride] | 170 to 174 °C
COCC1=C(C(=O)OC)C(c2ccc(F)c(F)c2)N(C(=O)NCCCN2CCC(c3ccccc3)(c3cccs3)CC2)C(=O)N1 (stereo not drawn) | 157 to 159 °C
COC(=O)C1=C(C)N=C(C)N(CCCCCNCCCc2ccccc2)C1c1ccc(F)c(F)c1 (stereo not drawn) (as salt: HCl) | 95 to 97 °C
COCC1=C(C(=O)OC)C(c2ccc(F)c(F)c2)N(C(=O)NCCCN2CCC(c3ccccc3)(c3ccco3)CC2)C(=O)N1 (stereo not drawn) | 153 to 155 °C
COC(=O)C1=C(C)N=C(C)N(CCCCCN2CCC(C(=O)OC)(c3ccccc3)CC2)C1c1ccc(F)c(F)c1 (stereo not drawn) (as salt: HCl) | 170 to 176 °C
